Molecular target: Monoaminoxidase A (Rattus norvegicus, UniProt P21396)
Sequence (P21396 whole entry): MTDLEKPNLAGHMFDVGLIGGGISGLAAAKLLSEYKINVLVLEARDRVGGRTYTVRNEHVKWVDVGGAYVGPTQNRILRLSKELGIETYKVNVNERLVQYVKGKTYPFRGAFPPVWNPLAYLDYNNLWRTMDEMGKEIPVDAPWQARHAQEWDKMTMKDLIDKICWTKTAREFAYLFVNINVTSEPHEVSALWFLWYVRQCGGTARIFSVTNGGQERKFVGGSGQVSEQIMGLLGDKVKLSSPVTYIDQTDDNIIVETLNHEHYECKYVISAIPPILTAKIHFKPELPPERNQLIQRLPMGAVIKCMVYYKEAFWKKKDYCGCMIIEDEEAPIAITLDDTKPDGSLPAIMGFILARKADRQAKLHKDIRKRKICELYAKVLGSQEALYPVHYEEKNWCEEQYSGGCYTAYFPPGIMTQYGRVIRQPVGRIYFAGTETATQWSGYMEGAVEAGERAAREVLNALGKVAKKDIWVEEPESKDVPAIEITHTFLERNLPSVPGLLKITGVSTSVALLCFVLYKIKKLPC
Assay: biochemical
Conditions: read-out: Monoaminoxidase inhibition IC50
endpointName: pIC50
Please report pIC50 as the negative decimal logarithm of the molar concentration, giving only the number.

Give me measured pIC50, please, for this molecule: C#CCN(C)Cc1ccccc1 [Pargyline, reference compound]
5.70

----------
Each record here notes measured pIC50.
Target: Monoaminoxidase A (Rattus norvegicus)
Assay: biochemical
Conditions: monoaminoxidase A, rat brain homogenate, 14C-tryptamine 0.4 μmol/liter, 37° C., 20 minutes; read-out: Monoaminoxidase inhibition IC50
Please report pIC50 as the negative decimal logarithm of the molar concentration, giving only the number.

- compound: "Cc1c(C)c2ccc(OS(=O)(=O)c3cc(Cl)ccc3Cl)cc2oc1=O [Example 13]"
  endpointName: "pIC50"
  reportedMeasurement: 7.57
- compound: "Cc1cc2ccc(OS(=O)(=O)c3ccc(Br)cc3)cc2oc1=O [Example 19]"
  endpointName: "pIC50"
  reportedMeasurement: 8.01
- compound: "CCCc1c(C)c2ccc(OS(=O)(=O)c3ccc(Cl)cc3)cc2oc1=O [Example 37]"
  endpointName: "pIC50"
  reportedMeasurement: 7.17
- compound: "Cc1c(C)c2ccc(OS(=O)(=O)c3cccc4ccccc34)cc2oc1=O [Example 3]"
  endpointName: "pIC50"
  reportedMeasurement: 7.12

Give me measured pIC50, please, for this compound: Cc1cc2ccc(OS(=O)(=O)c3ccc(Cl)cc3)cc2oc1=O [Example 30]
8.20
